This collection of values is drawn from ChEMBL document CHEMBL1201862.

tested on: M14; assay: NCI tumour cell line growth inhibition, 48 h
Active and inactive are the calls of the source. No stated cut-off is given here; in the data, active = GI50 up to about 1.1 µM and inactive = higher.
# output must be one of active, inactive

Query: Name the outcome recorded for O=C1NC2C(CCO)CC=C[C@H]2c2cc3c(cc21)OCO3 (some centres not stated) in the assay.
Response: inactive

Query: // return assay outcome for S=C(/C=C1\SC(=N\c2ccccc2)/C(=N/c2ccccc2)N1c1ccccc1)Nc1ccccc1
Response: inactive

Query: Per the assay record, what outcome was assigned to O=c1ccn(Cc2ccccc2CCl)c(=O)[nH]1 ?
Response: inactive

* * *

system: SNB-75; assay: NCI tumour cell line growth inhibition, 48 h
Active and inactive are the calls of the source. No stated cut-off is given here; in the data, active = GI50 up to about 1.1 µM and inactive = higher.
Listed below: GI50 values for each entry.

# compound, subject_of_test, property_name, result
rows = [
    ("CC(C)c1cccc2sc(NC(=O)C(=O)CC(=O)c3ccc(F)cc3)nc12", "SNB-75", "GI50", "59.7 µM (inactive)"),
    ("CN(C)/N=N/c1nc2c(c(=O)n(C)c(=O)n2C)n1CC(O)CO (stereo not given)", "SNB-75", "GI50", "> 100 µM (inactive)"),
    ("Cc1cc(C)nc(NS(=O)(=O)c2ccc(NC(=O)c3cccc4c(=O)c5ccccc5[nH]c34)cc2)n1", "SNB-75", "GI50", "18.5 µM (inactive)"),
    ("CSc1ccc(-c2cn3ccsc3n2)c(O)c1", "SNB-75", "GI50", "35.6 µM (inactive)"),
    ("C=C1C(=O)O[C@H]2C3C(=C(C)CC[C@@H]12)C(=O)[C@@H]1OC31C (stereo not given in full)", "SNB-75", "GI50", "2.38 µM (inactive)"),
    ("CCCCCCCCCCCCCC/C(C(=O)OC)=C(/O)C(=O)OCC", "SNB-75", "GI50", "33 µM (inactive)"),
    ("O=C1C(=O)N(c2ccc(Cl)cc2Cl)C(=O)C(=O)C1c1nc2ccccc2o1", "SNB-75", "GI50", "> 100 µM (inactive)"),
    ("CCC(O)CCCCCCCCCCCCCCC(=O)O (stereo not given)", "SNB-75", "GI50", "> 100 µM (inactive)"),
]

Entry O=S(=O)(O)c1cc(O)c2c(O)c(/N=N/c3cccc4ccccc34)c(S(=O)(=O)O)cc2c1 : GI50 on SNB-75 = > 100 µM (inactive)

Result for O=C1c2ccccc2C(=O)c2c1cc(S(=O)(=O)O)c(O)c2O , tested on SNB-75, GI50: > 100 µM (inactive)
